# assay_method_text: yeast display, Sf9 membrane polyspecificity reagent, FACS + sequencing; frameworks hold sequencing errors
metric: polyreactivity (PSR sort gate)

The cases that follow already have their polyreactivity (PSR sort gate) on record.
QVQLVESGGGLVQAGGSLRLSCAASGFIFRYYDMGWYRQAPGKERELVAAISWSGCSTYYADSVKGRFTISRDNAKNTVYLQMNSLKPEYTAVYYCAAERYAMLFYAEDYWGQGTQVTVSS | low polyreactivity
QVQLVESGGGLVQAGGSLRLSCAASGSIFDHYTMGWYRQAPGKERELVARISSRGGSTYYADSVKGRFTISRDNAKNTVYLQMNSLKPEDTAVYYCAAYKKLLYYKFGSWGQGTQVTVSS | high polyreactivity
QVQLVESGGGLVQAGGSLRLSCAASGSTFTWYAMGWSRQAPGKERELVADISYGGGSTYYADSVKGRFTISRDNAKNTVYLQMNSLKPEDTAVYYCAAESIPYYRYDYWGQGTQVTVSS | low polyreactivity
QVQLVESGGALVQAGGSLRISCAASGLIITHYAMGWYRQAPGKEMELVAAISNGGSTNYADSEKGRFTISRDNAKNTVYLEMNSLKPEDTAVSFCNARPNKYYAYPATRGKYYYWGQATQVTVSS | low polyreactivity

Provide polyreactivity (PSR sort gate) values for the following items, in order.
1. QVQLVESGGGLVQAGGRLRLSCAASGSTLEINGMGWYRQAPGKEREFVADISIGGDTNYADSVKGRFTISRDNAKNTEMNSLKPEDTAVYYCNTDYFGSLVVVIFDYWGQGTQVSVSS
2. QVQLVESGGGLVQAGGSLRLSCAASGRTFRRYAMGWYRQAPGKERELVAVITRGGNTNYADSVKGRFTISRDNAKNTVYLQMNSLKPEDTAVYYCAAELYNYGYDYWGQGTQVTVSS
3. QVQLVESGRGLVQAGGTLRISFADSGRIFGNYAMGRYRQAPGKERELVAAIPWRGGRTRYADSVKGRFTISRDNAKNTVYLQMNSLKPEDTAVYYCAAPYTSSGPDDYWGQGTQVTVSS

low polyreactivity
low polyreactivity
high polyreactivity

Provide polyreactivity (PSR sort gate) values for the following items, in order.
1. QVQLEETGGGLVQAGGSLRLSCAASGSIFHYNAMGWYRQAPGKEREFVAAITGGGGTYYADSVKGRCTISRDNAKNTVYFQMNSLKPEDTGVYYCAAQSRTSFRFNYWGQVTQVTVSS
2. QDQHVESGGGLVQAGGSLRLSCAASGSTLYRYAMGWYRQAPGKERELVAAISSAGSTHYADSVKGRFTISRDNAKNTVYLQKNSLKPEDTAVYYCAKVVKKIEFDYWGQGTQVTVSS
3. QVQLVESGGGIVQAGGSLRLSCATSGRIFDNNPKGRYRQAPGKESEMVAAIDWRGGTTDYADSVKGRFTISRDNAKNTVYFQMKSLKPEDTAVYYSNARGLNYYGRTFNYWGQGTQVTVSS
4. QVQLVESGGGLVQAGGSLRLSCAASGRTFTYYAMGWYRPAPGKERELVASISTTGRTYYADSVKGRFTISRDNAKNTVYLQMNSLKPEDTAVYYCATRSRYYYDYWGQGTQVTVSS

1: high polyreactivity; 2: high polyreactivity; 3: low polyreactivity; 4: high polyreactivity

---

# assay_method_text: yeast display, Sf9 membrane polyspecificity reagent, FACS + sequencing; frameworks hold sequencing errors
metric: polyreactivity (PSR sort gate)

QVQLVESGGGLVQAGGSLRLSCAASGLIFRWYDMGWYRQAPGKDRELVAAITRGGGTNYADSVKGRFTLSRDNAKNTVYLQMNSLKPEDTAVYYCAARLIKYGRAWTFGGYDYWGQGTQVSVSS | high polyreactivity
QVQLVESGGGLVQAGGSLRLSCAASGFIFRWYAMGWYRPAPGKERELVASINWSGSRTNYADSVKGRFTISRDNAKNTVYLQMNSLKPEDTAVYYCNAYGGLQYDYWGQGTQVTVSS | high polyreactivity

---

# assay_method_text: yeast display, Sf9 membrane polyspecificity reagent, FACS + sequencing; frameworks hold sequencing errors
metric: polyreactivity (PSR sort gate)

QVQLVESGGGLVQAGGSLRLSCAASGIIFYDNALGWYRQAPGKERELVAALDSDGSTDYADSVKGRFTISRDNAKNTVYLQMNSLKPEDTAVYYCAADLVWYASGRYIYRGYDYWGQGTQVTVSS | low polyreactivity
QVQLVESGGGLVQAGGSLRLSCAASGRIFWRYAMGWYRQAPGKERQLVAGITYSGGRTYYADSVKGRFTISRDNAKNTVYLQMNSLKPEDTAVYYCAARGYFDALFDYWGQGTQVTVSS | low polyreactivity

---

# assay_method_text: yeast display, Sf9 membrane polyspecificity reagent, FACS + sequencing; frameworks hold sequencing errors
metric: polyreactivity (PSR sort gate)

QVQLVESGGGLVQAGGSLRLSCAASGSIFRGYAMGWYRQAPGKGRELVAAISWSGASTYYADSVKGRFTISRDNAKNTVYLQMNSLKPEDTAVYYCAAVQWTGYPFDYWGQGTQVTVSS | high polyreactivity
QVQLVESGVGLVQAGGSLRLSCAASGSTFRRNTMGWYRKAPGKERELVAAINYSGGSTYYADSVKGRFTISRDNAKNTVYLQMNSLKPEDTAVYYCAARYAYDFPYYYWGQGTQVTVSS | high polyreactivity
QVQLVESGGGLVQAGGSLRLSCAASGRTFGSNAMGWYRQAPGKERELVAAISVRGGRTYSADSVKGRFTISRDNAKNTVSLQMNSLKPEDTAVYYCAADPYPISKYWFYHAVDYDSWGQGTQVTVSS | high polyreactivity
QVQLVESGGGLVQAGGSLRLSCAASGRIFLYYTMGWYRQAPGKERELVADITWRGGSTYYADSVKGRFTISRDNAKNTVYLQMNSLKPVDTAVYYCNAVSVSSNRSDYWGQGTQVTVSS | low polyreactivity

In the following, a different sequence is considered.
// returns reported polyreactivity (PSR sort gate) for input QVQHVESGGGLVQAGGSRRLSCAASGSTFYGYAMGWYRQAPGKEREFVAAITTSGGSTYYADSVKGRFTISRDNANNTVYLQMNSLKPEDTAVYYCAADGFYYDDGYWGQGTQVTVSS
low polyreactivity

---

# assay_method_text: yeast display, Sf9 membrane polyspecificity reagent, FACS + sequencing; frameworks hold sequencing errors
metric: polyreactivity (PSR sort gate)

The cases that follow already have their polyreactivity (PSR sort gate) on record.
QVQLLESGGGLVQAGGSLRISCAASGFTFWYYAMGWYRQAPGKERELVAAITSSGGSTYYADSVKGRFTISRDNAKNTVYLQMNSLKPEDTAVYYCAAGAPYRYYYWGQGTQVTVSS | high polyreactivity
QVQLVESGGGLVQAGGSLRLSCAASGFTFGYYTMGWYRQAPGKERELVASISRTGGRTYADSVKGRFTISRDNAKNTVYLQMNSLKPEDTAVYYCAAYRQGSAYDYWGQGTQVTVSS | high polyreactivity
QVQLVESGGGLVQAGGSLRLSCAASGITFVLNVMGWYRQAPGKERELVAAISWSVGGTYYADSVKGRFTISRDNAKNTVYLQMNSLKPEDTAVYYCAAGSYAYDNYGSEYWKWYGYWGQGTQVTVSS | low polyreactivity
QVQLVESCGGLVQAGGSLRLICAASGRNFGHNAMGWYRQAPGKEREFVAAITYSGVRTFFADSVKGRFTISRDNAKNTVYLQMNCLKPEDTAVYYCATDWRRYYDYWGQGTQVTVSS | low polyreactivity

In the following, a different sequence is considered.
// returns reported polyreactivity (PSR sort gate) for input QVQLVESGGGLVQAGGSLRLSCAASGRIFYSYAMGWYRQAPGKERELVATISRRGGSTYYADSVKGRFTISRDNAKNTVYLQMNSLKPEDTAVYYCNKGIPTRSVRSYDYWGQGTQVTVSS
high polyreactivity

---

# assay_method_text: yeast display, Sf9 membrane polyspecificity reagent, FACS + sequencing; frameworks hold sequencing errors
metric: polyreactivity (PSR sort gate)

QVQLVVSGGGLVQAGGSLRLSCAASGRTFPRYAMGWYRQAPGKERELVASISRRGGSTYYADSVKGRFTISRDNAKNTVYLQMNSLKPEDTAVYYCNAQGYPYKQSTGDFWGQGTQVTVSS | high polyreactivity
QVQLVESGGGLVQAGGSLRLSCAASGSTFTDYDMGWYRQAPGKERELVAAITSGGSTNYADSVKGRITISRDNAKNTVYLQMNSLKPEDTAVYYCAAADADRKYDYWGQGTQVTVSS | low polyreactivity
QVQLVESGGGLVQAGGSLRLSCAASGSTFSYNAMGWYRQAPGKERELVAAINLRGGNTYYADSVKGRFTNSRDNAKNTVYLQMNSLKPEDTAVYYCARTRRHSQTFDYWGQGTQVIVSS | high polyreactivity
QVQLVESVGGLVQAGGSLRLSCAASGFTFPWNVMGRYRQAPGKERELVAAITYDGGGTYADSVKGRFTISRDNAKNTVYLQMNSLKPEDTAVYYCNADLINGEEYDYWGQGTQVTVSS | low polyreactivity
QVQLVESGGGLVQAGGSLRLSCAASGRIFRRYVMGWYRQAPGKERELVARIRIRDSNTYYADSVKGRFTISRDNAKNTVYLQMNSLKPEDTAVYYCNADTWADRSTYDYWGQGTQVTVSS | low polyreactivity

Provide polyreactivity (PSR sort gate) values for the following items, in order.
1. QVQLVETGGGLVQAGGSLRLSCAASGRIFVVYDMGWYRQAPGKERELVANITISGGRTYYADSVKGRFTISRDNAKNTVYLQMNSLKPEDTAVYYCAATSGALYYGYEYWGQGTQVTVSS
2. QVQLVESGGGLVQAGGSLRLSCAASGSIFYRNDMGWYRQAPGKERELVAAITWSGVNTYYADSVKGRFTISRDNAKNTVYLQMNSLKPEDTAVYYCAVPSRYWLNRGFDYWGQGTQVTVSS
3. QVQLVESGGGLVQAGGSLRLSCAASGFTFQYYAMGCYRPAPGKERELVATISSTDNTYYADSVKGRFTISRDNAKNTVYLQMFSLKPEDTAVYYCNAAYVYGYQARGGYWGQGTQVTVSS
4. QVQLVESGGGLVQAGGSLRLSCAASRYIFSRNAMGWYRQAPGKERELVAAISLRGGSTYFADSVKGRFTISRDNAKNTVYLQMNSLKPEDTAVYYCAAPLFSGYDYWGQGTQVTVSS

1: low polyreactivity; 2: low polyreactivity; 3: high polyreactivity; 4: low polyreactivity

Provide polyreactivity (PSR sort gate) values for the following items, in order.
1. QVQLVESGGGLVQAGGSLRLSSAASGSIFERYTMAWYRLAPGKERELVAVISTGGGSTNYADSVKGRFTFSRDNAKNTVYLQMNSLKPADTAVYYCAASYGYYRYGYWGQGTQVNVSS
2. QVQLVESGGGLVQAGGSLRLSCAASGFIFYPYAMGWYRQAPGKERELVAVITSGGRTYYADSVKGRFTISRDNAKNTVYLQMNSLKPEDTAVYYCAARYGSIHWKANWPEYGYWGQGTQVTVSS
3. QVQLVETGGGLVQAGGSLRLSCAASGFTFTVYATGWYRQAPGKERELVAAIRWSGGSTSYADSVKRRFTISRDNAKNTVYLQMNSLKPEDTAVYYCNARISDAHYQSNYFLVLYDYWGQGTQVTVSS
4. QVQLVESGGGLVQAGGSLRLSCAASGSTFDGYAMGWSRQAPGKERELVAAITFDGSSTYYADSVKGRFTISRDNAKNTVYLQMNSLKPEDTAVYYCAAASSYWVLWDDYWGQGTQVTVSS
5. QVQLVESGGGLVQAGGSLRLSCAASGFTFYPYAMGWYRQAPGKERELVAAISNGDSTHYADSVKGRFTISRDNAKNTVYLQMNSLKPEDTAVYYCAAVRGYPSRITSYVYTYGYWGQGTQVTVSS
6. QVQLVESGGGLVQAGGSLRLSCAASGSILQTYAMGWYRQAPGKERELVAAITWSVVSTYYADSVKGRFTISRDNAKNTVYLQMNSLKPEDTAVYYCNARSFGDPGNAYDYWGQGTQVTVSS
7. QVQLVESGGGLVQAGGSLRLSCAASGSIFQFYAMGWYRQAPGKERELVAAITGDGSTDYADSVKGRFTISRDNAKNTVYLQMNSLKPEDTAVYYCAADLWRYLGWYYIYHYDYWGQGTQVTVSS
8. QVQLVESGGGLVQAGGSLRLSCAASGFIFYGNAMGWYRQAPGKERELVAAITRRGGRTYYADSVKGRFTISRDNAKNTVYLQMNSLKPEDTAVYYCAKDRGRSLEMDYWGQGTQVTVSS

["high polyreactivity", "low polyreactivity", "low polyreactivity", "low polyreactivity", "low polyreactivity", "high polyreactivity", "low polyreactivity", "high polyreactivity"]
